Answer each item with its documented T/C.
- System: BDF1 mice, B16 melanoma ip, median survival T/C
- testName: NCI In Vivo Anticancer Drug Screen. Data for tumor model B16 Melanoma (intraperitoneal) in B6D2F1 (BDF1) mice
- measurementParameters: endpoint: median survival time; dose: 200.0 mg/kg/injection; schedule: Q01DX009 (ip); vehicle: saline; higher = longer survival
Toxic doses and inconclusive results are not listed.

# example entries with known answers
{"molecule": "CSCCC(NC(C)=O)C(=O)NNC(C)C (stereo not drawn)", "T/C": "88 % of control"}
{"molecule": "C[N+](C)(C)c1ncnc2nc[nH]c12", "T/C": "87 % of control"}

Next molecule, T/C to be filled in.
Which value of T/C has been reported for NC(=S)c1ncn(C2OC(CO)C(O)C2O)c1N (stereo not drawn) in the records?
103 % of control

---

- Test system: BDF1 mice, B16 melanoma ip, median survival T/C
- testName: NCI In Vivo Anticancer Drug Screen. Data for tumor model B16 Melanoma (intraperitoneal) in B6D2F1 (BDF1) mice
- measurementParameters: endpoint: median survival time; dose: 50.0 mg/kg/injection; schedule: Q01DX009 (ip); vehicle: saline; higher = longer survival
- Description: The antitumor activity of compounds was measured in mice bearing transplantable tumors. Survival or tumor size were measured and the results are expressed as the measurement made in the treated group (T) divided by the measurement made in the vehicle treated control group (C). The tumor model used in this assay is B16 Melanoma (intraperitoneal) in B6D2F1 (BDF1) mice
Toxic doses and inconclusive results are not listed.
Would you mind telling me the reported T/C of each entry?

For orientation, consider the following solved cases.
{"molecule": "Nc1c(Cl)cc(C(=O)NC2CC2)cc1Cl", "T/C": "97 % of control"}
{"molecule": "CC1CC(C)(C)N=C(CCC2CCCC23OCCO3)O1 (stereo unspecified)", "T/C": "108 % of control"}
{"molecule": "CCOC(=O)CC(SP(=S)(OC)OC)C(=O)OCC (stereo unspecified)", "T/C": "95 % of control"}
{"molecule": "C1OC1CO[C@@H]1CO[C@H]2[C@@H]1OC[C@H]2OCC1CO1 (stereo partly specified)", "T/C": "115 % of control"}
{"molecule": "Clc1cc(Cl)c(C[N+]23CN4CN(CN(C4)C2)C3)cc1Cl", "T/C": "108 % of control"}

Find the recorded T/C belonging to COc1nc(=O)n(C2C=CC(=O)O2)cc1F (stereo unspecified) and report it.
87 % of control

---

- System: BDF1 mice, B16 melanoma ip, median survival T/C
- testName: NCI In Vivo Anticancer Drug Screen. Data for tumor model B16 Melanoma (intraperitoneal) in B6D2F1 (BDF1) mice
- measurementParameters: endpoint: median survival time; dose: 400.0 mg/kg/injection; schedule: Q01DX009 (ip); vehicle: saline with Tween-80; higher = longer survival
Inconclusive results and toxic doses are left out. Peptide text beside a SMILES is read from it.
valueType: T/C

Batch lookup, T/C per entry.
1. CCC(C)C(C(=O)O)c1ccccc1 (stereo not drawn)
2. CCC(=O)Oc1[nH]c(C)c(C(C)=O)c1C
3. CCCCCCCCSSCCCCCCCC
4. CC(C)CC(NC(=O)C(C)NC(=O)CN)C(=O)O (stereo not drawn) (H-Gly-Ala-Leu-OH; configuration not given here)
5. NC(=S)N/N=C1/c2cc(Cl)ccc2-c2c(Cl)cc(Cl)cc21

93 % of control
95 % of control
98 % of control
103 % of control
93 % of control
